assay_overview: Half life in rat at 0.8 mg/kg, iv
Assay type: ADME, organism-based
Design: dose 0.8 mg/kg, route intravenous
measurement_context: in vivo
measured_metric: half-life (min)

line_notation=COc1ccc2cncc(Cc3nc4c([nH]3)c(=O)n(C)c(=O)n4CC(C)C)c2c1 endpoint_result=21

====

assay_overview: Bioavailability in rat at 3.3 mg/kg, intraduodenally
Assay type: ADME, organism-based
measurement_context: in vivo
measured_metric: bioavailability (%)

line_notation=COc1ccc2cncc(Cc3nc4c([nH]3)c(=O)n(C)c(=O)n4CC(C)C)c2c1 unit=% endpoint_result=1

====

assayed_system: High affinity 3',5'-cyclic-AMP phosphodiesterase 7A (Homo sapiens, UniProt Q13946)
Sequence (Q13946 whole entry): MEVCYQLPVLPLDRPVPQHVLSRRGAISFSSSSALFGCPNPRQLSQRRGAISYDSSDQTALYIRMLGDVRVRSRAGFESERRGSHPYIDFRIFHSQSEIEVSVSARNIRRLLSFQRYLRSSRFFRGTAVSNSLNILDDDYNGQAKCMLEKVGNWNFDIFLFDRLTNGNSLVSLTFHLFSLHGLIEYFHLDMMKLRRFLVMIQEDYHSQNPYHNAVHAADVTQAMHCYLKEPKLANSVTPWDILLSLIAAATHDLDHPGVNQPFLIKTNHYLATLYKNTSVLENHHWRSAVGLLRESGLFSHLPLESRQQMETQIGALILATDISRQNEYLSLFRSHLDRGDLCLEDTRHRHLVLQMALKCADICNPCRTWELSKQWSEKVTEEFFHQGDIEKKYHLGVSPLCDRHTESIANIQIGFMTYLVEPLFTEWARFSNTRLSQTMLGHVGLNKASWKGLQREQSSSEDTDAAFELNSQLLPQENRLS
assay_overview: Inhibition of human recombinant PDE7A by […] scintillation proximity assay
pIC50: −log10 of the molar value.
measured_metric: pIC50

line_notation=COc1ccc2cncc(Cc3nc4c([nH]3)c(=O)n(C)c(=O)n4CC(C)C)c2c1 endpoint_result="< 5.00"

Reference source: ChEMBL document CHEMBL1139183
